molecular target: T1, CH505.w30.12D8gp120; assay: ELISA
T1 construct: also called CH505w30.12 gp120
Overview of recorded LogAUC for various binders
Write the value as a bare number.

binder	LogAUC
CH235 (antibody, V domains shown, also called CH235_4A) VH: QVQLVQSGAEVKKPGASVTVSCQASGYTFTNYYVHWVRQAPGQGLQLMGWIDPSWGRTNYAQNFQGRITMTRDTSTSTVYMEMRSLRSEDTAVYYCARNVATEGSLLHYDYWGQGTLVTVSA VL: EIVLTQSPATLSVSPGERATLSCRASQSVRSNLAWYQQRPGQAPRLLIYGTSTRATGVPARFSGRGSGTEFTLAISSMQSEDFAVYLCLQYNNWWTFGQGTKVEIK	7.28
CH491 (antibody, V domains shown, also called CH235.7; DH491) VH: QVQLVQSGAAVKRPGASVTISCRASGYTFTTYYIHWVRQAPGQGLELMGWINPRGGRTDYSYRFEDRVSMYRDTSMSIVYMDLRNLKSADTAVYYCVRNVGTSGSLLHYDFWGQGSLVTVSS VL: EIVLTQSPATLSVSPGERVTLSCRASQSVRNNLAWYRQKRGQAPRLLIYGASTRATGIPARFSGSGSGTEFTLTISSMQSEDFAVYYCQQYNNWWTFGQGTKVEIK	3.89

Now, please, on to the next binder.
Look at this binder and give its reported LogAUC. CH557 (antibody, V domains shown, also called CH235.12; CH557_4A/293i) VH: QVRLAQYGGGVKRLGATMTLSCVASGYTFNDYYIHWVRQAPGQGFELLGYIDPANGRPDYAGALRERLSFYRDKSMETLYMDLRSLRYDDTAMYYCVRNVGTAGSLLHYDHWGSGSPVIVSS VL: EIVLTQSPATLSASPGERVTLTCRASRSVRNNVAWYQHKGGQSPRLLIYDASTRAAGVPARFSGSASGTEFTLAISNLESEDFTVYFCLQYNNWWTFGQGTRVDIK
2.37
